In this section we review reported protein stability index values for a set of variants.
B1: FCHSD1 (parent)
chain: LQEPGVFSPTPPQQFQPAGTDQVC

Variants of: B1
experimental-details: protein stability index of a GFP-peptide fusion (GPS, HEK-293T) (PSI 1-6); higher = more stable;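 further: lentivirally expressed fusions sorted by FACS into six bins by GFP to DsRed ratio, PSI derived from sequencing read proportions per bin multiplied by bin number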
condition-info: c terminus: a fixed tail appended
assay-endpoint: protein stability index

>>> print(df.to_string())
                   sequence  reported_measurement
0  LQEPGVFSPTPPMQFQPAGTDQVC                  3.96
1  LQEPGVFSPTPIQQFQPAGTDQVC                  4.11
2  LQEPGVFSPTPPRQFQPAGTDQVC                  4.07
